Each recorded value in this set is attributed to ChEMBL document CHEMBL1201862.

Test system: HOP-18
Assay: NCI tumour cell line growth inhibition, 48 h
Activity calls are given as the source filed them. Rule as the data show it: active = GI50 up to about 1.1 µM and inactive = higher.
Outcome field: choose from t (active), f (inactive)

In: Recorded call for CC[C@@]1(O)C(=O)OCc2c1cc1n(c2=O)Cc2cc3cc(O)ccc3nc2-1 [HYDROXYCAMPTOTHECIN] ?
Out: t

In: Try the compound N#CC1(Cc2ccccc2[N+](=O)[O-])c2ccccc2C2C(N1C(=O)c1ccccc1)C2(Cl)Cl (stereo not given)
Out: f

In: Try the compound CN(C(=O)C12C3C4C1C1C2C3C41I)C(C)(C)C (stereo not given)
Out: f

In: Try the compound `O=C1C(c2ccccc2)=C(O)c2cccc3cccc1c23`
Out: f

In: Try the compound `Cc1nc(N)sc1C(=O)/C=C/c1ccc([N+](=O)[O-])cc1`
Out: f
